Values were extracted from patent US6972296B2.

system: α4β1 integrin (Homo sapiens, UniProt P05556+P13612)
Construct: endogenous in cells; host or cells: Ramos cells
Sequence (P13612 34-1032): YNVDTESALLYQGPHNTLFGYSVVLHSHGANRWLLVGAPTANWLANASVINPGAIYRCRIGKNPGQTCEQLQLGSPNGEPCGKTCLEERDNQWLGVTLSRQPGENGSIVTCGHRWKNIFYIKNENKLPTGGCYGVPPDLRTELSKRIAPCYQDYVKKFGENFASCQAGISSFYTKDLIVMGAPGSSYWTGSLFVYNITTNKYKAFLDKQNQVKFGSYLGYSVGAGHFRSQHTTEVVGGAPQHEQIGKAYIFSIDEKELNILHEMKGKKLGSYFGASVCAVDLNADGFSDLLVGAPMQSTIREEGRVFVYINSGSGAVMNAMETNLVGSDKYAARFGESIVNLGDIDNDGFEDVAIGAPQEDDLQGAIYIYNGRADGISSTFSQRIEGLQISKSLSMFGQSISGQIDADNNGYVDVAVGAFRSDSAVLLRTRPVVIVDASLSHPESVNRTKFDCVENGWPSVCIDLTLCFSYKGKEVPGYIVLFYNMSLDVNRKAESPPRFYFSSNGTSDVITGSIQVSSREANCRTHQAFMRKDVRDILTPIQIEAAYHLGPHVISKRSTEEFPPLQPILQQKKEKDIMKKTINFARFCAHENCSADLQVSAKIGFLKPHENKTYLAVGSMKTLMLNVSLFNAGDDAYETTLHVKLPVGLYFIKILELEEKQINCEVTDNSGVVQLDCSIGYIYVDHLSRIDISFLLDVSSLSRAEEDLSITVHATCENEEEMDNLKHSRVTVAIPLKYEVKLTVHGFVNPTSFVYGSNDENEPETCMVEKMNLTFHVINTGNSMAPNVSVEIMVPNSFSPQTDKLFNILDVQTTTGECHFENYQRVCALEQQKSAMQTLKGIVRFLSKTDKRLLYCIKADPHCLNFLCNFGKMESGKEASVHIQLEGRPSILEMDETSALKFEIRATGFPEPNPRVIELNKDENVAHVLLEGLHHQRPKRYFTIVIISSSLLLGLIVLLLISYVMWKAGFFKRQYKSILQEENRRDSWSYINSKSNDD
Sequence (P05556 21-798): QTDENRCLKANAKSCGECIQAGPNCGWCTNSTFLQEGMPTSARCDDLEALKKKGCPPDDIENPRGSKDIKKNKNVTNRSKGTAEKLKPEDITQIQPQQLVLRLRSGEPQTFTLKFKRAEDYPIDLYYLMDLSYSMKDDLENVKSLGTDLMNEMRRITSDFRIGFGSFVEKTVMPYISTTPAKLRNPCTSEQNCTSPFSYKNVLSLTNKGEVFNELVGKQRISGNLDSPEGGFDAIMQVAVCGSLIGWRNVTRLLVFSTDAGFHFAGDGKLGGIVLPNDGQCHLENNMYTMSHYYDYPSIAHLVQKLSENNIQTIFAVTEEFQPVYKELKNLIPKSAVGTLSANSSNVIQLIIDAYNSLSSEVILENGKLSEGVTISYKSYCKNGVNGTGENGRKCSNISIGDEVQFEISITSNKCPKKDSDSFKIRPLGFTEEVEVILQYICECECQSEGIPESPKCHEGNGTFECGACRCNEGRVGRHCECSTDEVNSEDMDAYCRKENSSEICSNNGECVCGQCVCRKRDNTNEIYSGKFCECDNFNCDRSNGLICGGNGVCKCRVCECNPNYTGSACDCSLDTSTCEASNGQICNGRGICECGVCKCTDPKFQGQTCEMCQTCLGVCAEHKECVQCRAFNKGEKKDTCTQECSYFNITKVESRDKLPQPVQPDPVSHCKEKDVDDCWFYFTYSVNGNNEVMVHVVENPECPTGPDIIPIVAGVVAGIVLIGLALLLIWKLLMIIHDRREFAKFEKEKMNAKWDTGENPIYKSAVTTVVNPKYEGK
assayText: Adhesion of calcein-labeled Ramos cells to CS1 (fibronectin) peptide conjugated ovalbumin
Format: cell-based
studyConditions: Table 6; Ramos cell adhesion to CS1 conjugated ovalbumin, 30 minutes at 37° C.
Labelling: IC50 reported below 10 nM becomes Condition met; at or above becomes Condition not met.

Cc1ccc([C@H](CC(=O)O)NC(=O)Nc2c(O)c(C)cn(Cc3c(F)cccc3F)c2=O)cc1: Condition not met
Cc1ccc([C@H](CC(=O)O)NC(=O)Nc2c(O)c(C)cn(Cc3cc(Cl)ccc3F)c2=O)cc1: Condition not met
Cc1ccc([C@H](CC(=O)O)NC(=O)Nc2c(O)c(Cl)cn(Cc3ccccc3Cl)c2=O)cc1: Condition met
Cc1cn(Cc2ccccc2Cl)c(=O)c(NC(=O)N[C@@H](CC(=O)O)c2ccc(OC(F)(F)F)cc2)c1O: Condition not met
O=C(O)CC(NC(=O)Nc1c(O)ccn(Cc2ccccc2Cl)c1=O)c1cc2ccccc2o1 (centres unmarked): Condition not met
Cc1cn(Cc2ccccc2Cl)c(=O)c(NC(=O)N[C@@H](CC(=O)O)c2ccc3c(ccn3C)c2)c1O: Condition met
CCOc1ccc([C@H](CC(=O)O)NC(=O)Nc2c(O)c3ccccc3n(Cc3ccccc3Cl)c2=O)cc1OCC: Condition met
CCOc1cccc([C@H](CC(=O)O)NC(=O)Nc2c(O)c(C)cn(Cc3c(C)cccc3Cl)c2=O)c1: Condition met
Cc1cn(Cc2ccccc2Cl)c(=O)c(NC(=O)N[C@@H](CC(=O)O)c2cccc(OC(C)C)c2)c1O: Condition met
O=C(O)C[C@H](NC(=O)Nc1c(O)ccn(Cc2ccccc2Cl)c1=O)c1ccc(OC(F)F)cc1: Condition not met
Cc1ccc([C@H](CC(=O)O)NC(=O)Nc2c(O)c(C)cn(Cc3c(C)cccc3Cl)c2=O)cc1C: Condition not met
Cc1ccc([C@H](CC(=O)O)NC(=O)Nc2c(O)c(C3CC3)cn(Cc3ccccc3Cl)c2=O)cc1: Condition not met
O=C(O)C[C@H](NC(=O)Nc1c(O)ccn(Cc2ccccc2Cl)c1=O)c1cccc(OC(F)(F)C(F)F)c1: Condition not met
COc1cccc(Cl)c1Cn1cc(C)c(O)c(NC(=O)N[C@@H](CC(=O)O)c2ccc(C)c(C)c2)c1=O: Condition met
O=C(O)CC(NC(=O)Nc1c(O)ccn(Cc2ccccc2Cl)c1=O)c1ccc2ccccc2n1 (centres unmarked): Condition not met
